Experimental System: Intestinal-type alkaline phosphatase (Homo sapiens)
Sequence (P09923 whole entry): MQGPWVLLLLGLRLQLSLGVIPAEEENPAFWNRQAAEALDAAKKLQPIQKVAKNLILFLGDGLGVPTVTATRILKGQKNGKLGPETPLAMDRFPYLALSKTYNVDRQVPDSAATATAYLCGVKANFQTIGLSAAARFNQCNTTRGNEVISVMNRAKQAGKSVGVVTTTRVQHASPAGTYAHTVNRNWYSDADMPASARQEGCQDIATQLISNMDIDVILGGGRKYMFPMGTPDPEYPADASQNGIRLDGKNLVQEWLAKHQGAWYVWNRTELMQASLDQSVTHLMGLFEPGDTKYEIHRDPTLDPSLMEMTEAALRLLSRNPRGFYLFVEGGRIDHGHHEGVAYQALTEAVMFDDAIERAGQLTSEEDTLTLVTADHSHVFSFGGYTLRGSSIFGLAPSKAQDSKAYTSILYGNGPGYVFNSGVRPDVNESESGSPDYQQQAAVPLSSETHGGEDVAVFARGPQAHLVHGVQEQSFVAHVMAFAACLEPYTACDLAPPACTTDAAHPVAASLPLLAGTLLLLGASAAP
Assay Notes: human intestinal alkaline phosphatase activators, dose response, biochemical, luminescence, uHTS hits (AID 463120)
pEC50: −log10 of the molar value.
Measured Attribute: pEC50

1) COc1cccc(C=NNC(=O)c2[nH][nH]c(=O)c2C)c1O; 5.19
2) Cn1c(C(C#N)C(=O)c2ccc(Br)s2)nc2ccccc21 (stereo not given) [MLS001167394]; 4.11
3) Cc1c(C(=O)NN=Cc2ccc(O)cc2O)[nH][nH]c1=O; 5.08
4) CCOC(=O)c1c(C)[nH]c(C(=O)N/N=C/C2C=C([N+](=O)[O-])C=CC2=O)c1C (stereo not given); 4.92
5) O=C(Nn1c(O)csc1=S)C(=O)Nn1c(O)csc1=S [SMR000349781]; 5.04
